biological target: NRAS G12C (Homo sapiens, UniProt P01111+P62937, G12C); assay: Disruption of BRAF RBD interaction with Ras (FRET / MOA assay, with Cyclophilin A); assay type: biochemical; details: NRAS G12C; read-out: NRAS G12C FRET data IC50
Sequence (P01111 whole entry G12C): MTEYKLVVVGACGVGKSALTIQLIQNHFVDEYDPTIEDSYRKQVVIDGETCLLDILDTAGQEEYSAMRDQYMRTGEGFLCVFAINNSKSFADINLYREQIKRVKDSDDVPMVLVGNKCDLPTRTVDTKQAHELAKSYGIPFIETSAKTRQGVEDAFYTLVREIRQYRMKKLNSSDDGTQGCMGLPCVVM
Sequence (P62937 whole entry): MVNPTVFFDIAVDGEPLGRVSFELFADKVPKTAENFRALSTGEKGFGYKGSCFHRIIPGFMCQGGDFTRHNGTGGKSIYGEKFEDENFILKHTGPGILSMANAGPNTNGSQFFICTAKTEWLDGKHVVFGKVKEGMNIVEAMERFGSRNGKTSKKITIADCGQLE
REPORTED METRIC: IC50

compound="CCn1c(-c2cccnc2[C@H](C)OC)c2c3cc(ccc31)-c1cccc(c1)C[C@H](NC(=O)[C@@H](COC1CN(C(=O)C#CC(C)(C)N(C)C(C)C)C1)C(C)C)C(=O)N1CCCC(N1)C(=O)OCC(C)(C)C2 (stereo partly shown)" target_system="NRAS G12C (Homo sapiens, UniProt P01111+P62937, G12C)" reported_metric=IC50 result="10 to 100 nM"
compound=CCn1c(-c2cccnc2COC)c2c3cc(ccc31)-c1cc(O)cc(c1)C[C@H](NC(=O)[C@H](C(C)C)N(C)C(=O)[C@H]1CCN(C(=O)C#CCN3CCOCC3)C1)C(=O)N1CCC[C@H](N1)C(=O)OCC(C)(C)C2 target_system="NRAS G12C (Homo sapiens, UniProt P01111+P62937, G12C)" reported_metric=IC50 result="< 10 nM"
compound="CCn1c(-c2cccnc2[C@H](C)OC)c2c3cc(ccc31)-c1csc(n1)C[C@H](NC(=O)[C@H](C(C)C)N(C)C(=O)N1CC(OC(F)F)C1)C(=O)N1CCC[C@H](N1)C(=O)OCC(C)(C)C2 (atropisomer, axis not shown)" target_system="NRAS G12C (Homo sapiens, UniProt P01111+P62937, G12C)" reported_metric=IC50 result="10 to 100 nM"
compound="CCn1c(-c2cccnc2[C@H](C)OC)c2c3cc(ccc31)-c1cc(O)cc(c1)C[C@H](NS(=O)(=O)c1cnc[nH]1)C(=O)N1CCC[C@H](N1)C(=O)OCC(C)(C)C2 (racemic)" target_system="NRAS G12C (Homo sapiens, UniProt P01111+P62937, G12C)" reported_metric=IC50 result="> 10000 nM"

====

target: KRAS WT (Homo sapiens, UniProt P01116+P62937); test: Ras-Raf disruption / FRET / MOA assay (BRAF RBD); format: biochemical; conditions: KRAS WT FRET data IC50, Ras-Raf disruption, with Cyclophilin A
Sequence (P01116 1-169 isoform P01116-2 limits assumed): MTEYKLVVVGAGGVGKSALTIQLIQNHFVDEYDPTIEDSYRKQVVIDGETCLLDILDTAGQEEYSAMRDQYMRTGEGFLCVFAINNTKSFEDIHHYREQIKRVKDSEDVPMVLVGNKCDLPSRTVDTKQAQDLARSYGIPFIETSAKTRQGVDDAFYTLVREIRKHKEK
Sequence (P62937 whole entry): as the sequence (P62937 whole entry) above
pIC50: −log10 of the molar value.
REPORTED METRIC: pIC50

compound="CCn1c(-c2cccnc2[C@H](C)OC)c2c3cc(ccc31)-c1cc(O)cc(c1)C[C@H](NC(=O)[C@H](C(C)C)N(C)C(=O)CN(C)C(=O)[C@H]1CN1CC(=O)N(C)C)C(=O)N1CCC[C@H](N1)C(=O)OCC(C)(C)C2 (stereo partly drawn)" target_system="KRAS WT (Homo sapiens, UniProt P01116+P62937)" result="6.00 to 7.00"
compound=CCn1c(-c2cccnc2[C@H](C)OC)c2c3cc(ccc31)-c1cc(O)cc(c1)C[C@H](NC(=O)[C@H](C(C)C)N(C)C(=O)CN(C)C(=O)[C@@H]1N[C@H]1C(F)(F)F)C(=O)N1CCC[C@H](N1)C(=O)OCC(C)(C)C2 target_system="KRAS WT (Homo sapiens, UniProt P01116+P62937)" result="7.00 to 8.00"
compound="CCn1c(-c2cccnc2[C@H](C)OC)c2c3cc(ccc31)-c1cc(O)cc(c1)C[C@H](NC(=O)[C@H](C(C)C)N(C)C(=O)CN(C)C(=O)[C@H]1CN1)C(=O)N1CCC[C@H](N1)C(=O)OCC(C)(C)C2 (single isomer, unassigned) [Example 42B]" target_system="KRAS WT (Homo sapiens, UniProt P01116+P62937)" result="5.00 to 6.00"
compound=CCn1c(-c2cccnc2[C@H](C)OC)c2c3cc(ccc31)-c1cc(O)cc(c1)C[C@H](NC(=O)[C@H](C(C)C)N(C)C(=O)CN(C)C(=O)[C@]1(C)CN1)C(=O)N1CCC[C@H](N1)C(=O)OCC(C)(C)C2 target_system="KRAS WT (Homo sapiens, UniProt P01116+P62937)" result="7.00 to 8.00"
compound=CCn1c(-c2cccnc2[C@H](C)OC)c2c3cc(ccc31)-c1cc(O)cc(c1)C[C@H](NC(=O)[C@H](C(C)C)N(C)C(=O)[C@H]1CC[C@@H](C)N1C(=O)[C@@H]1CN1)C(=O)N1CCC[C@H](N1)C(=O)OCC(C)(C)C2 target_system="KRAS WT (Homo sapiens, UniProt P01116+P62937)" result="6.00 to 7.00"
compound=CCn1c(-c2cccnc2[C@H](C)OC)c2c3cc(ccc31)-c1cc(O)cc(c1)C[C@H](NC(=O)[C@H](C(C)C)N1CC[C@H](NC(=O)[C@H]3CN3)C1=O)C(=O)N1CCC[C@H](N1)C(=O)OCC(C)(C)C2 target_system="KRAS WT (Homo sapiens, UniProt P01116+P62937)" result="7.00 to 8.00"
